System: Priestia megaterium
Assay: Antibacterial activity against Bacillus megaterium ATCC 9885 after 24 hrs by two fold serial dilution technique
Assay type: functional
Conditions: ATCC 9885, 24 h
ASSAY_READOUT: MIC (µg/mL)

O=C(O)CNC(=O)c1ccc(NC(=S)Nc2cccc(F)c2)cc1
12.5
O=C(O)CNC(=O)c1ccc(NC(=S)NNS(=O)(=O)c2ccccc2)cc1
3.12
Nc1n[nH]c(NC(=S)Nc2ccc(C(=O)NCC(=O)O)cc2)c1/N=N/c1ccc(Cl)cc1
6.25

(P) O=C(O)CNC(=O)c1ccc(NC(=S)Nc2ccc(S(=O)(=O)Nc3ncccn3)cc2)cc1
(Q) O=C(O)CNC(=O)c1ccc(NC(=S)Nc2cccc(Br)c2)cc1
Given the listed records, identify the one among P and Q with higher MIC. Write down the label of the entry you select.
P

###

System: Priestia megaterium
Assay: Antibacterial activity against Bacillus megaterium ATCC 9885 assessed as diameter of inhibition zone at 1 mg/ml after 24 hrs by agar well diffusion method
Assay type: functional
Details: ATCC 9885, 24 h, read-out: DIZ
// reported zone of inhibition at 1000 µg/mL for each item listed
Record the value in mm, omitting the unit from your answer.

O=C(O)CNC(=O)c1ccc(NC(=S)Nc2ccc(S(=O)(=O)Nc3nccs3)cc2)cc1
14
O=C(O)CNC(=O)c1ccc(NC(=S)Nc2ccccc2C(=O)Nc2cccc(C(F)(F)F)c2)cc1
14
CCOc1ccc(NC(=O)c2ccccc2NC(=S)Nc2ccc(C(=O)NCC(=O)O)cc2)cc1
0
O=C(O)CNC(=O)c1ccc(NC(=S)Nc2cccc(Br)c2)cc1
32

Now for another entry.
Summary line: "Nc1n[nH]c(NC(=S)Nc2ccc(C(=O)NCC(=O)O)cc2)c1/N=N/c1ccc(Cl)cc1" , Priestia megaterium, reported zone of inhibition at 1000 µg/mL = 27

###

Tested on: Escherichia coli
Test: Antibacterial activity against Escherichia coli ATCC 25922 assessed as diameter of inhibition zone at 1 mg/ml after 24 hrs by agar well diffusion method
Assay type: functional
Details: ATCC 25922, 24 h, read-out: DIZ
ASSAY_READOUT: zone of inhibition at 1000 µg/mL (mm)
Record the value in mm, omitting the unit from your answer.

The reported value for "CCCCNC(=S)Nc1ccc(C(=O)NCC(=O)O)cc1" in terms of zone of inhibition at 1000 µg/mL is 22

The reported value for "O=C(O)CNC(=O)c1ccc(NC(=S)Nc2ccc(C(=O)NCC(=O)O)cc2)cc1" in terms of zone of inhibition at 1000 µg/mL is 22

The reported value for "O=C(O)CNC(=O)c1ccc(NC(=S)Nc2ccc(NC(=S)Nc3ccc(C(=O)NCC(=O)O)cc3)cc2)cc1" in terms of zone of inhibition at 1000 µg/mL is 24

The reported value for "Cc1c(NC(=S)Nc2ccc(C(=O)NCC(=O)O)cc2)c(=O)n(-c2ccccc2)n1C" in terms of zone of inhibition at 1000 µg/mL is 14

The reported value for "O=C(O)CNC(=O)c1ccc(NC(=S)NNS(=O)(=O)c2ccccc2)cc1" in terms of zone of inhibition at 1000 µg/mL is 29

###

// reported zone of inhibition at 1000 µg/mL for each item listed
Tested on: Klebsiella pneumoniae
Assay: Antibacterial activity against Klebsiella pneumoniae ATCC 13883 assessed as diameter of inhibition zone at 1 mg/ml after 24 hrs by agar well diffusion method
Format: functional
Conditions: ATCC 13883, 24 h, read-out: DIZ
Record the value in mm, omitting the unit from your answer.

As a guide, the following entries are already answered.
O=C(O)CNC(=O)c1ccc(NC(=S)Nc2ccc(S(=O)(=O)Nc3ccccn3)cc2)cc1
20
CCOc1ccc(NC(=O)c2ccccc2NC(=S)Nc2ccc(C(=O)NCC(=O)O)cc2)cc1
20
CCCCNC(=S)Nc1ccc(C(=O)NCC(=O)O)cc1
20

Now for another entry.
The reported value for "O=C(O)CNC(=O)c1ccc(NC(=S)NNC(=O)c2ccccc2)cc1" in terms of zone of inhibition at 1000 µg/mL is 20
